# protocol description: growth inhibition of DIPG cells – cell-based, MIPE4.0 library, CellTiter-Glo luminescence, qHTS (AID 1347066);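 also: cells exposed to compound for 48 hours before readout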
# details: SU-DIPG-VI viability, CellTiter-Glo ATP luminescence
Results filed as inconclusive are left out. The source made the active and inactive calls. The limit is not given here; nearly all actives have AC50 up to about 30 µM.
Outcomes: 1.0 (active), 0.0 (inactive)

compound | qualitative label
Cn1cc(/C=C/C(=O)c2cccc(F)c2)cc1/C=C/C(=O)NO | 0.0
COc1cc2c(Oc3ccc(NC(=O)C4(C(=O)Nc5ccc(F)cc5)CC4)cc3F)ccnc2cc1OCCCN1CCOCC1 | 1.0
Cc1ccc(O)c(C(CCN(C(C)C)C(C)C)c2ccccc2)c1 (stereo not drawn) | 0.0
CCN1CCN(C(=O)N[C@H](C(=O)N[C@@H]2C(=O)N3C(C(=O)O)=C(CSc4nnnn4C)CS[C@@H]23)c2ccc(O)cc2)C(=O)C1=O | 0.0
CC1(C)C(N(O)C(=O)Nc2ccc(Cl)cc2)N(c2ccc(Cl)cc2)C(=O)N1CC(=O)N/N=C/C=C/c1ccc([N+](=O)[O-])o1 (stereo not drawn) | 1.0
C=C1C[C@@]2(O)O[C@@]3(C[C@H]2C(C)C)[C@@H](C)CC[C@@H]13 | 0.0
CN(N=O)C(=O)N[C@H]1C(O)OC(CO)[C@@H](O)[C@@H]1O (stereo partly drawn) | 0.0
CC(=O)N1CCN(c2ccc(OCc3nn(C)c(C)c3-c3cccc4c(CCCOc5cccc6ccccc56)c(C(=O)O)n(Cc5cccnc5)c34)cc2)CC1 | 1.0

Origin of measurements: PubChem BioAssay
